The measurements presented in this section are drawn from patent US20250276960A1.

Assay: Solubility of amorphous solids of Compound 1 in single solvents at room temperature
Assay type: physicochemical
Details: organic solvent or mixture, thermodynamic from solid, nPA
Experimental: The amorphous solids of Compound 1 as prepared in Example 1 was measured in 20 single solvents at room temperature and crystallization screening was then conducted in the same set of solvents. For each solvent tested, a slurry of the amorphous solids and the solvent was prepared with a […] and the amorphous solids were allowed to dissolve. […] The wet solids were then analyzed by powder X-ray diffraction (PXRD). […]
Recorded Metric: solubility

Record Cc1cc([C@@H](C)Nc2ccc(Cl)nc2C(=O)O)c2nc(N3CCOCC3)c(C#N)nc2c1 . Reported solubility: 47.1 to 58.9 mg/mL

====

Assay: Solubility of amorphous solids of Compound 1 in single solvents at room temperature
Assay type: physicochemical
Settings: organic solvent or mixture, thermodynamic from solid, MTBE
Recorded Metric: solubility

Record Cc1cc([C@@H](C)Nc2ccc(Cl)nc2C(=O)O)c2nc(N3CCOCC3)c(C#N)nc2c1 . Reported solubility: 102 to 221 mg/mL

====

Test: Solubility of amorphous solids of Compound 1 in single solvents at room temperature
Assay type: physicochemical
Settings: organic solvent or mixture, thermodynamic from solid, DCM
Recorded Metric: solubility

Record Cc1cc([C@@H](C)Nc2ccc(Cl)nc2C(=O)O)c2nc(N3CCOCC3)c(C#N)nc2c1 . Reported solubility: > 192 mg/mL

====

Experiment: Solubility of amorphous solids of Compound 1 in single solvents at room temperature
Format: physicochemical
Settings: organic solvent or mixture, thermodynamic from solid, MIBK
Recorded Metric: solubility

Record Cc1cc([C@@H](C)Nc2ccc(Cl)nc2C(=O)O)c2nc(N3CCOCC3)c(C#N)nc2c1 . Reported solubility: > 189 mg/mL

====

Test: Solubility of amorphous solids of Compound 1 in single solvents at room temperature
Assay type: physicochemical
Settings: organic solvent or mixture, thermodynamic from solid, EtOAc
Recorded Metric: solubility

Record Cc1cc([C@@H](C)Nc2ccc(Cl)nc2C(=O)O)c2nc(N3CCOCC3)c(C#N)nc2c1 . Reported solubility: > 204 mg/mL

====

Assay: Solubility of amorphous solids of Compound 1 in single solvents at room temperature
Assay type: physicochemical
Settings: organic solvent or mixture, thermodynamic from solid, IPAc
Recorded Metric: solubility

Record Cc1cc([C@@H](C)Nc2ccc(Cl)nc2C(=O)O)c2nc(N3CCOCC3)c(C#N)nc2c1 . Reported solubility: > 221 mg/mL

====

Assay: Solubility of amorphous solids of Compound 1 in single solvents at room temperature
Assay type: physicochemical
Settings: organic solvent or mixture, thermodynamic from solid, THF
Recorded Metric: solubility

Record Cc1cc([C@@H](C)Nc2ccc(Cl)nc2C(=O)O)c2nc(N3CCOCC3)c(C#N)nc2c1 [Compound 1] . Reported solubility: > 215 mg/mL

====

Experiment: Solubility of amorphous solids of Compound 1 in single solvents at room temperature
Type: physicochemical
Settings: organic solvent or mixture, thermodynamic from solid, 1,4-Dioxane
Recorded Metric: solubility

Record Cc1cc([C@@H](C)Nc2ccc(Cl)nc2C(=O)O)c2nc(N3CCOCC3)c(C#N)nc2c1 [Compound 1] . Reported solubility: > 221 mg/mL

====

Experiment: Solubility of amorphous solids of Compound 1 in single solvents at room temperature
Type: physicochemical
Conditions: organic solvent or mixture, thermodynamic from solid, heptane
Recorded Metric: solubility

Record Cc1cc([C@@H](C)Nc2ccc(Cl)nc2C(=O)O)c2nc(N3CCOCC3)c(C#N)nc2c1 . Reported solubility: < 1300 µg/mL
